For each of the compounds below, state its pIC50.
biological target: PI3K α (Homo sapiens, UniProt P42336); test: PI 3-Kinase (human) HTRF assay, PI3K α; details: read-out: PI3K α IC50
Sequence (P42336 whole entry, one chain of several): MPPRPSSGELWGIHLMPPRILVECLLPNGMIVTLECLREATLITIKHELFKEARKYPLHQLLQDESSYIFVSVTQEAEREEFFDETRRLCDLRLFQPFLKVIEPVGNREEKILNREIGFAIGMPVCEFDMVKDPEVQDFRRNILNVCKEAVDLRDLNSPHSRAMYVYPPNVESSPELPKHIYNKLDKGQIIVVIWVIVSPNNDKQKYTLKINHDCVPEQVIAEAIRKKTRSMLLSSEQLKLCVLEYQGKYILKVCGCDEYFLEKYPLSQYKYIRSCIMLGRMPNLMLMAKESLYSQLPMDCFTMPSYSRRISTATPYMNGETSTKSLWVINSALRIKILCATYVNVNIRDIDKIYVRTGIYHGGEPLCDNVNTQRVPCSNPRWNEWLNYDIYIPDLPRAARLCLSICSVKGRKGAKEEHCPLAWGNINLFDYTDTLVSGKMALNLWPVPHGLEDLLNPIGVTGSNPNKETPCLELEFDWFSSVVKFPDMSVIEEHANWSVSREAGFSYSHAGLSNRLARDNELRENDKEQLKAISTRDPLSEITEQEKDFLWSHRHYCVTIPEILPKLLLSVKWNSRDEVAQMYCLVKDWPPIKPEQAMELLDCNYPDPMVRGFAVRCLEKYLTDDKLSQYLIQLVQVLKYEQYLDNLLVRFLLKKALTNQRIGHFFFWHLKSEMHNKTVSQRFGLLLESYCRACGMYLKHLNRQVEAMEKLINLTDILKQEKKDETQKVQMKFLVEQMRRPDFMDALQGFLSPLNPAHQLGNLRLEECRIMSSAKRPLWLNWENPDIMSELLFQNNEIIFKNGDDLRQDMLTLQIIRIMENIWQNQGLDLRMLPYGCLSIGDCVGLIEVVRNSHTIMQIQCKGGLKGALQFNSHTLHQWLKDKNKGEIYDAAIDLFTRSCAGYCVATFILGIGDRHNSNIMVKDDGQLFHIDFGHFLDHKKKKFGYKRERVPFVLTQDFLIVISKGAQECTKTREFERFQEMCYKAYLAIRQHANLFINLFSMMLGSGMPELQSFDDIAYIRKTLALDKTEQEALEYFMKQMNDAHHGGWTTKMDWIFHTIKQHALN
pIC50: −log10 of the molar value.

Prompt: What does the data say about its pIC50? Entry: "C[C@H]1CN(c2cnc3ccc(-c4ccc5oc(N)nc5c4)cc3n2)CCN1C"
Response: > 6.00

Prompt: For CN1CCN(C2CCC(n3nc(-c4cc5cc(O)ccc5[nH]4)c4c(N)ncnc43)CC2)CC1 (stereo not shown) , what is its reported pIC50?
Response: < 6.30

Prompt: I have this compound here, "CC(C)n1nc(-c2cc3cc(O)c(Cl)cc3[nH]2)c2c(N)ncnc21" , and I need its recorded pIC50.
Response: < 6.30

Prompt: Find the recorded pIC50 belonging to "CC(=O)Nc1nc2ccc(-c3ccc4oc(N)nc4c3)cc2s1" and report it.
Response: > 7.00

Prompt: Any idea what pIC50 was measured for "CC(=O)N1CCC(n2nc(-c3cc4ccc(O)cc4[nH]3)c3c(N)ncnc32)CC1" ?
Response: 7.30 to 7.60

Prompt: For the compound shown here, "Nc1ncnc2c1c(-c1cc3cccc(Cl)c3[nH]1)nn2C1CCOCC1" , give the reported pIC50.
Response: < 6.30

Prompt: Record request: pIC50 value, item "CC(C)[C@H](N)C(=O)N1CCN(c2cnc3ccc(-c4ccc5oc(N)nc5c4)cc3n2)CC1"
Response: > 7.00

Prompt: I am curious: what pIC50 value has been reported for "Nc1nc2cc(-c3ccc4ncc(N5CC(N6C7CCC6COC7)C5)nc4n3)ccc2o1" ?
Response: > 5.00

Prompt: Query (compound): "CC(=O)N1CCC(n2nc(-c3cc4cc(O)ccc4[nH]3)c3c(N)ncnc32)CC1" ; field requested: pIC50
Response: < 6.30

Prompt: Looking for the measured pIC50 of "Nc1nc2cc(-c3cnc4ccc(N5C6CCC5COC6)nc4c3)ccc2o1" , can you help?
Response: > 5.00

Prompt: Fill in: pIC50 of "CCOC(=O)Cn1nc(-c2cc3cc(O)ccc3[nH]2)c2c(N)ncnc21" is ___
Response: < 6.30

Prompt: Which pIC50 reading was recorded for the compound "Nc1nc2cc(-c3ccc4ncc(C(=O)N5CCN(CC6CC6)CC5)n4c3)ccc2o1" ?
Response: > 6.00

Prompt: Which pIC50 reading was recorded for the compound Nc1ncnc2c1c(-c1cc3cc(O)ccc3[nH]1)nn2C1CC(N2CCOCC2)C1 (stereo not shown) ?
Response: < 6.30

###

target: PI3K β (Homo sapiens); assay: PI 3-Kinase (human) HTRF assay, PI3K β; settings: read-out: PI3K β IC50; Table 4
Sequence (P42338 whole entry): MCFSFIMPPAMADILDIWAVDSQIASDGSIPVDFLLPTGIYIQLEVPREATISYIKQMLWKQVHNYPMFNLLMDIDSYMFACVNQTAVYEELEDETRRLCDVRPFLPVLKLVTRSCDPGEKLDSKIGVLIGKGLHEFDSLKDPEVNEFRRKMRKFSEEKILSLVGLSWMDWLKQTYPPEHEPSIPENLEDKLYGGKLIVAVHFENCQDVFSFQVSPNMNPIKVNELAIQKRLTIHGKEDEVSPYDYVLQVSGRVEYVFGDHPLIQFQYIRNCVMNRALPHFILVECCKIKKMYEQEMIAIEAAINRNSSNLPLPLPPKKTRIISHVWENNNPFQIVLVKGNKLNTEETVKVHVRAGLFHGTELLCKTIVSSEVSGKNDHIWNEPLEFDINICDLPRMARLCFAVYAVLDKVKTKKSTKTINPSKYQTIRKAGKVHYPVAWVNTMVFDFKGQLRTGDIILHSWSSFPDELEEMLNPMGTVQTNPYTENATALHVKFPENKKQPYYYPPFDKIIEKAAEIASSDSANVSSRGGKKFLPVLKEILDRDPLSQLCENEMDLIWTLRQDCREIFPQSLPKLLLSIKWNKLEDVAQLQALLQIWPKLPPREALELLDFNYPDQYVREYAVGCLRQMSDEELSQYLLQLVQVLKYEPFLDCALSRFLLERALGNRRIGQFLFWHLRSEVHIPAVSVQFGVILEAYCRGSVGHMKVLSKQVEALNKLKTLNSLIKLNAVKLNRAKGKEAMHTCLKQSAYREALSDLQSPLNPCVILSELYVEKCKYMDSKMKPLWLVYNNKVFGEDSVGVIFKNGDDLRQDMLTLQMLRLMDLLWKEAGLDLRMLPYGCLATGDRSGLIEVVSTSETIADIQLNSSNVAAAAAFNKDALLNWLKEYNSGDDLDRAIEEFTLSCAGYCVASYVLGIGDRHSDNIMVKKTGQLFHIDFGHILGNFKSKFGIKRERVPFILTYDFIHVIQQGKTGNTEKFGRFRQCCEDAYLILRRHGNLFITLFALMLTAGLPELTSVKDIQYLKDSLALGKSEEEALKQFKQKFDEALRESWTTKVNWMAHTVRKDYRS
Sequence (P27986 whole entry partner): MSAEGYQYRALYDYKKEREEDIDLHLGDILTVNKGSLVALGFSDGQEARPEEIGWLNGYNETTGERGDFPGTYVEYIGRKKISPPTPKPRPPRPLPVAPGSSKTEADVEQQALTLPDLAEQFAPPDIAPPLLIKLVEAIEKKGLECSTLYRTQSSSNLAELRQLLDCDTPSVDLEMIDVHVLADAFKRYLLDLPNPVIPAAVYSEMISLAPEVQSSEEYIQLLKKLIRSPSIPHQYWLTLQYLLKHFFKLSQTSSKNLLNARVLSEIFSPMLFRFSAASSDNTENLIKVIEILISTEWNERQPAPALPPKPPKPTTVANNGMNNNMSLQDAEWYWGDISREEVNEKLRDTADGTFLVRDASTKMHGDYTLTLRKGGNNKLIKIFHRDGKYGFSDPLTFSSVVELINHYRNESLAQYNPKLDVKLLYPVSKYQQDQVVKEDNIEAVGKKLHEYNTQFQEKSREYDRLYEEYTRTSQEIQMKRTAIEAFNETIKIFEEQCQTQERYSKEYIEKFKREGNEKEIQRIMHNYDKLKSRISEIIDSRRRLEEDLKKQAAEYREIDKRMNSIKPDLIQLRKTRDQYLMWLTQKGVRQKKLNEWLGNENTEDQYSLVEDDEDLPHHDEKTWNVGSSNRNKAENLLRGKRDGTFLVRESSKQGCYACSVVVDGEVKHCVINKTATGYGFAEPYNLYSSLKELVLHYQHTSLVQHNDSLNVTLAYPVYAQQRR
experimentalEndpoint: IC50

Prompt: Can you share its IC50? I mean this molecule: "C[C@@H]1CN(C2CN(c3cnc4ccc(-c5ccc6oc(N)nc6c5)nc4c3)C2)CCN1"
Response: < 10 µM

Prompt: Returns the measured IC50 for the input molecule. Input: "C[C@H]1CN(C2CN(c3cnc4ccc(-c5ccc6oc(N)nc6c5)nc4c3)C2)CCN1"
Response: < 10 µM

Prompt: Quick one: IC50 of "CC1(C)CN(C2CN(c3cnc4ccc(-c5ccc6oc(N)nc6c5)nc4c3)C2)CCN1" ?
Response: < 10 µM

Prompt: # lookup: IC50 of "CN1CCN(c2ccc3ncc(-c4ccc5oc(N)nc5c4)cc3n2)CC1"
Response: < 10 µM

Prompt: Quick one: IC50 for "Nc1nc2cc(-c3cnc4ccc(N5C6CCC5COC6)nc4c3)ccc2o1" ?
Response: > 10 µM

Prompt: # lookup: IC50 of "NCC(=O)N1CCN(c2cnc3ccc(-c4ccc5oc(N)nc5c4)nc3n2)CC1"
Response: < 10 µM

Prompt: Need IC50, item "Nc1nc2cc(-c3ccc4ncc(-c5cccnc5)cc4n3)ccc2o1"
Response: < 10 µM

Prompt: IC50 lookup needed for "C[C@@H]1CN(C2CN(c3cnc4ccc(-c5ccc6oc(N)nc6c5)nc4c3)C2)CCN1C" , thanks.
Response: < 10 µM

Prompt: Form field: reported IC50 of "C[C@H]1COCCN1c1cnc2ccc(-c3ccc4oc(N)nc4c3)nc2n1"
Response: < 10 µM

Prompt: For the molecule "CC(C)(N)C(=O)N1CCN(c2cnc3ccc(-c4ccc5oc(N)nc5c4)nc3n2)CC1" , what IC50 is on record?
Response: < 10 µM

Prompt: Which IC50 value is on record for "Nc1nc2cc(-c3ccc4ncc(N5CC(N6CCN(CC7CC7)CC6)C5)cc4n3)ccc2o1" ?
Response: < 10 µM

Prompt: Field request: IC50 | item: "CN1CCN(C2CN(c3cnc4ccc(-c5ccc6oc(N)nc6c5)nc4c3)C2)CC1=O"
Response: < 10 µM

Prompt: For the molecule shown here, "Nc1nc2cc(-c3ccc4ncc(N5CC(N6C7CCC6COC7)C5)cc4n3)ccc2o1" , give the reported IC50.
Response: > 10 µM

Prompt: Can you look up the measured IC50 of "C[C@@H](N)C(=O)N1CCN(c2cnc3ccc(-c4ccc5oc(N)nc5c4)nc3n2)CC1" for me?
Response: < 10 µM

Prompt: Param item = CN1CC2CN(c3cnc4ccc(-c5ccc6oc(N)nc6c5)nc4n3)CC2C1 (centres unmarked) ; retrieve measured IC50.
Response: < 1 µM

Prompt: What does the record list as IC50 for "Nc1nc2cc(-c3ccc4ncc(N5CC(N6CCN(CC7CC7)CC6)C5)nc4n3)ccc2o1" ?
Response: < 10 µM

Prompt: Entry "Nc1nc2cc(-c3ccc4ncc(C5=CCOCC5)nc4n3)ccc2o1" : reported IC50 = ?
Response: < 10 µM
